# Test system: K-562
# protocol details: NCI 60-cell line growth inhibition assay
# Type: cell-based
# condition set: Homo sapiens, K562; K-562 (Leukemia)
# GI50 per record follows
Quick note: give the figure in µM, leave out the unit.

Cn1cnc2c(NCc3ccccc3)nc(NCCO)nc21 [Olomoucine, reference compound]
100
CC[C@H](CO)Nc1nc(NCc2ccc(-c3cccc([N+](=O)[O-])c3)cc2)c2ncn(C(C)C)c2n1
0.16
CC(C)n1cnc2c(NCc3ccc(-c4ccccn4)cc3)nc(N[C@H]3CC[C@H](N)CC3)nc21
0.02

Next:
# GI50 lookup, item CC(=O)N[C@H]1CC[C@H](Nc2nc(NCc3ccc(-c4ccccc4)nc3)c3ncn(C(C)C)c3n2)CC1
0.024

###

# Test system: COLO 205
# protocol details: NCI 60-cell line growth inhibition assay
# Format: cell-based
# condition set: Homo sapiens; Colon, COLO 205
measured metric: GI50 (nM)
# output: bare number, implied unit nM

Some molecules with recorded GI50:
C=Cc1ccc(-c2ccc(CNc3nc(N[C@H](CC)CO)nc4c3ncn4C(C)C)cc2)cc1
7800
CC[C@H](CO)Nc1nc(NCc2ccc(-c3ccccn3)cc2)c2ncn(C(C)C)c2n1
50
CC[C@H](CO)Nc1nc(NCc2ccc(-c3ccccc3)cc2)c2ncn(C(C)C)c2n1
280

We now examine a further molecule.
Entry CC[C@H](CO)Nc1nc(NCc2ccc(-c3cccc(C(F)(F)F)c3)cc2)c2ncn(C(C)C)c2n1 has what GI50?
160

###

# Tested on: SK-MEL-28
# protocol details: NCI 60-cell line growth inhibition assay
# Assay type: cell-based
# condition set: Homo sapiens; SK-MEL-28 (Melanoma)
Catalogue of GI50 values
A number alone suffices; assume nM.

Reference set (2 entries):
CC(C)n1cnc2c(NCc3ccc(-c4ccsc4)cc3)nc(N[C@H]3CC[C@H](N)CC3)nc21
10
CC[C@H](CO)Nc1nc(NCc2ccc(-c3ccc(OC)cc3)cc2)c2ncn(C(C)C)c2n1
2300

API: the following record is the query input.
Which GI50 value belongs to CC(C)n1cnc2c(NCc3ccc(-c4ccccn4)cc3)nc(N[C@H]3CC[C@H](N)CC3)nc21 ?
10

###

# System: NCI-H460
# protocol details: NCI 60-cell line growth inhibition assay
# Type: cell-based
# condition set: Homo sapiens; NCI-H460 (Non-Small Cell Lung)
Threshold check on GI50: strictly below 200 nM is Satisfied; on or above 200 nM is Not satisfied.

CC[C@H](CO)Nc1nc(NCc2ccc(-c3cccc([N+](=O)[O-])c3)cc2)c2ncn(C(C)C)c2n1
Not satisfied
CC(=O)N[C@H]1CC[C@H](Nc2nc(NCc3ccc(-c4ccccn4)cc3)c3ncn(C(C)C)c3n2)CC1
Satisfied
CC(=O)N[C@H]1CC[C@H](Nc2nc(NCc3ccc(-c4ccccc4)nc3)c3ncn(C(C)C)c3n2)CC1
Not satisfied
Cn1cnc2c(NCc3ccccc3)nc(NCCO)nc21 [Olomoucine, reference compound]
Not satisfied
CC(C)n1cnc2c(NCc3ccc(-c4ccccn4)cc3)nc(N[C@H]3CC[C@H](N)CC3)nc21
Satisfied

Dear colleague, could you confirm whether GI50 of CC[C@H](CO)Nc1nc(NCc2ccc(-c3ccc(OC)cc3)cc2)c2ncn(C(C)C)c2n1 falls below 200 nM? Thanks.
Not satisfied
